# assay: Saturated solubility of AGN in the vehicle of the gels (HPLC), with Student's t-test against gel B
# Type: physicochemical
# condition-info: gel vehicle with propionic acid, hexylene glycol 0%, polysorbate 40 0.4%, poloxamer 407 0.0%; propionic acid for carbomer
property-label: solubility (µg/mL)
# output: bare number, implied unit µg/mL

For record `CCOC(=O)c1ccc(C#Cc2ccc3c(c2)C(C)(C)CCS3)nc1` the listed solubility is 89.3

====

# assay: Solubility of AGN in various aqueous solutions at 35° ± 0.5° C. (Table I)
# Assay type: physicochemical
# condition-info: 0.50% Polysorbate 40, 35° C.
property-label: solubility

Value of measured solubility for the entry `CCOC(=O)c1ccc(C#Cc2ccc3c(c2)C(C)(C)CCS3)nc1` : 33.2 µg/mL
